Recorded values, source PubChem BioAssay (NCI).

# Test system: MCF7 breast
# measurement_notes: NCI tumour cell line growth inhibition, 48 h
Kindly state TGI for each of the entries shown.

>>> test_result("CCO/C(O)=C(/C(=N)N1CCCC1)C(=O)Nc1ccc(F)cc1")
"> 100 µM"

Give one value of TGI per listed molecule.
1. COc1cc2ccc1OCc1cccc(n1)COc1ccc(cc1OC)C=Nc1ccc(cc1)-c1ccc(cc1)N=C2
2. O[C@H]1[C@H]2[C@H](O)C[C@H](CCOCc3ccccc3)CN2C[C@H]1O
3. C[C@@H](Oc1ccc2[nH]nc(/C=C/c3cnn(CCO)c3)c2c1)c1c(Cl)cncc1Cl
4. Cc1ccc(C2C3=C(N=c4s/c(=C/c5ccc(Br)cc5)c(=O)n42)c2ccc4ccccc4c2OCC3)cc1 (stereo not given)
5. CCCCCCCCCCCCCCCC(=O)OC(COC(C)=O)CO[P+](=O)O (stereo not given)

OUT:
> 100 µM
> 100 µM
4.06 µM
> 100 µM
> 100 µM

----------
# Test system: SK-MEL-28 melanoma
# measurement_notes: NCI tumour cell line growth inhibition, 48 h
endpoint_label: GI50

The examples below pair each entry with its known result.
>>> test_result("C(=C\\c1nccc2c1[nH]c1ccccc12)/c1ccccc1")
"4.78 µM"
>>> test_result("Cc1ccc(C2C3=C(N=c4s/c(=C/c5ccc(Br)cc5)c(=O)n42)c2ccc4ccccc4c2OCC3)cc1 (stereo not given)")
"> 100 µM"
>>> test_result("O=S(=O)(NCCNc1cc(-c2cn(-c3ccccc3)nc2-c2cccc(O)c2)ccn1)c1ccc(Cl)cc1")
"2.2 µM"
>>> test_result("O=C(O)c1cc(Cc2ccc(O)c(C(=O)O)c2)ccc1O (tested in a mixture with another compound)")
"10.1 µM"
>>> test_result("O=C(Nc1cccc(O)c1)c1cccc(NC2=C(Cl)C(=O)N(Cc3ccccc3)C2=O)c1")
"16.9 µM"
>>> test_result("CC(=O)/C=C/C1=C(c2cccs2)c2ccccc2CC1")
"22.4 µM"
>>> test_result("CS(=O)(=O)CCn1c(=O)c(Oc2ccc(F)cc2F)cc2cnc(NC3CCOCC3)nc21")
"> 25 µM"
>>> test_result("CC(=O)[C-](C(C)=O)c1ccccc1.CC(=O)[C-](C(C)=O)c1ccccc1.CC[O-].CC[O-].[Ti+4]")
"> 100 µM"
>>> test_result("Cc1nc2cc(Nc3nc(Nc4ccc(F)cc4)nc(N4CCN(C)CC4)n3)ccc2n1Cc1ccccc1")
"1.73 µM"

Continue with the compound presented below.
GI50 for SK-MEL-28 melanoma with input COC(=O)C1(C2CC/C(C)=C/CC/C(C)=C/CC[C@@]3(C)O[C@@H]3C2)CC1 (stereo not given in full) equals > 100 µM

----------
# System: KM12 colon
# measurement_notes: NCI tumour cell line growth inhibition, 48 h
endpoint_label: TGI

The examples below pair each entry with its known result.
>>> test_result("Cc1ccc2c(c1)O/C(=C\\c1ccc([N+](=O)[O-])o1)C2=O")
"3.4 µM"
>>> test_result("CCc1cccc(C(C)CC)c1NC(=O)C(=O)C(CC(=O)Nc1ccc(Cl)c(Cl)c1)C(=O)OC (stereo unspecified)")
"> 100 µM"

Give one value of TGI per listed molecule.
1. CCCCCCCCCCCCn1[nH]c(C)c(C(=S)SCCCCCCCC)c1=O
2. CC(C)c1cccc(C(=O)NCCN(C)C)c1[N+](=O)[O-]
3. COc1cc2ccc1OCc1cccc(n1)COc1ccc(cc1OC)C=Nc1ccc(cc1)-c1ccc(cc1)N=C2
4. Nc1cc(N2CCOCC2)nc(=O)n1-c1ccc(Cl)cc1
5. CC1(C)CCC[C@@]2(C)C1C(=O)[C@@H]1O[C@]1(C)[C@@H]2CO (stereo partly specified)
6. COc1cc2c(c(OC)c1OC)C(=O)[C@H](Br)[C@H]2NC(=O)NCCCl
7. CC1CN=C(NS(=O)(=O)c2cc(C(=O)Nc3ccc(F)cc3)c(Cl)cc2S)NN1 (stereo unspecified)
8. O=C(Nc1ccc(Cl)cc1)c1cc(S(=O)(=O)Nc2nnc(-c3ccccc3)c(-c3ccccc3)n2)c(SCc2ccccc2)cc1Cl

OUT:
> 100 µM
> 100 µM
> 100 µM
> 100 µM
> 100 µM
> 100 µM
> 100 µM
> 62 µM
